test system: HCC-2998 colon; test: NCI-60 one-dose screen, 48 h (100 = growth as untreated, 0 = no growth, -100 = all killed); conditions: 10 µM
The panel holds about 83,000 compounds, 20% with a hit somewhere; the sample as a whole holds those more often.
Listed here are compounds together with their documented growth.
Respond with the bare value in %.

Known results for compounds:
INSERT INTO measurements (compound, measured_attribute, unit_of_measure, readout_value) VALUES
  ('COc1cc2c(O[C@@H]3OC[C@H](O)[C@H](O)[C@H]3O)c3c(c(-c4ccc5c(c4)OCO5)c2cc1OC)C(=O)OC3', 'growth', '%', 73.4),
  ('COC1[C@@H]2C[C@H]3C(C)(C)O[C@@](C/C=C(/C)C(=O)O)(C2=O)[C@]32Oc3c(CC=C(C)C)c4c(c(O)c3C(=O)[C@H]12)C=CC(C)(C)O4 (stereo partly specified)', 'growth', '%', -81.9),
  ('CC1=C(CN(O)C(N)=O)C2=C(C)C3(CC3)[C@@](C)(O)C(=O)C2=C1', 'growth', '%', -53.2),
  ('CN(CCF)/N=N/c1nc[nH]c1C(N)=O', 'growth', '%', 38.7),
  ('NC1CCc2cc(O)c(O)cc2C1 (stereo unspecified)', 'growth', '%', 46.2);

Turning now to a further record.
Requested read-out growth, target or system HCC-2998 colon, entry "Cc1ccc(CNc2nc3ccc(OC/C(=C/F)CN)cc3o2)cn1"
111

* * *

test system: HL-60(TB) leukemia; assay: NCI-60 one-dose screen, 48 h (100 = growth as untreated, 0 = no growth, -100 = all killed); settings: 10 µM unless noted
About 83,000 compounds went through this panel and 20% of them were active in at least one assay; those are over-represented in the sample as a whole.
measured_attribute: growth (%)
Field format: number, assumed %, no unit text.

INSERT INTO results (compound, experimental_system, readout_value) VALUES
  ('CC(C)Sc1nc(Nc2ccc(S(N)(=O)=O)cc2)c(C#N)c(-c2ccc(F)cc2)n1', 'HL-60(TB) leukemia', 45.4);

Param readout= growth; system= HL-60(TB) leukemia; entry= "CCN(CC)c1ccc(/C=N/NC(=O)c2ccc(S(N)(=O)=O)cc2)c(O)c1" ; returns value.
1.26

Kindly state the measured growth obtained for "O=c1[nH]c2ccccc2cc1CSc1ccccc1Nc1nccc(-c2ccc(C(F)(F)F)cc2)n1" with HL-60(TB) leukemia.
90

Any idea what growth came out for CC(=O)O[C@@H]1[C@@H]2O[C@H]2[C@@](C)(O)C(=O)[C@@H](C)C/C=C/[C@H]2[C@@H]3O[C@]3(C)[C@@H](C)C3[C@H](Cc4ccccc4)NC(=O)[C@@]312 (some centres undefined) on HL-60(TB) leukemia?
58.2

* * *

system: SK-OV-3 ovarian; test: NCI-60 one-dose screen, 48 h (100 = growth as untreated, 0 = no growth, -100 = all killed); settings: 10 µM
Compounds without any hit were thinned out: in the full panel of roughly 83,000, 20% have a hit. Calls of active or inactive are those of the source. The calls were made as follows: active = growth percent below 10; inactive = the rest.
Entries and their measured growth follow.

Sample records with growth:
INSERT INTO assay_data (molecule, readout_value) VALUES
  ('CC1=C2C(=C[C@@](C)(COC(=O)c3ccc(S(=O)(=O)F)cc3)[C@@H]2O)C(=O)[C@](C)(O)C12CC2', '-24.7% (active)'),
  ('COc1cc2c(cc1OC)[C@@H]1N(CC2)C(=O)c2ccccc2[C@@]1(C)C(=O)O', '113% (inactive)'),
  ('CC1=C2C(=C[C@@](C)(C=O)[C@@H]2O)C(=O)[C@](C)(O)C12CC2', '11.1% (inactive)'),
  ('NC1CCc2cc(O)c(O)cc2C1 (stereo not given)', '104% (inactive)');

Reported growth for "O=C(CCCc1ccc(N(CCCl)CCCl)cc1)OCc1ccccc1" : what is it?
108% (inactive)
